Test: Quantitative High-Throughput drug screen in 47 multiple myeloma cell lines against the NCATS MIPE library collection: XG6_PLB cell viability assay (AID 1919865); further: nearly all actives have a fitted effect of over 40% in size
Settings: XG6 myeloma viability, CellTiter-Glo ATP luminescence, 48 h; series mostly up to 45.8 µM
Results filed as inconclusive are left out. Activity calls are given as the source filed them. The call rests on the fitted dose curve; in most records, active means well fitted cell-killing curve with a large enough effect; inconclusive means small, poorly fitted or top-dose-only effect, or effect the other way; inactive means no such curve, though single readings can be large or run the other way.
Respond using exactly one of the listed classes: yes = active, no = inactive

Take a look at these entries with their results.
CCOC(=O)C1=C(O)C(=O)N(Cc2ccccc2)C1	no
N=C(N)c1ccc2cc(OC(=O)c3ccc(N=C(N)N)cc3)ccc2c1	no
Cc1cc2c(s1)Nc1ccccc1N=C2N1CCN(C)CC1	no
CCN(CC)CCOc1ccc(Nc2ncc3cc(-c4c(Cl)cccc4Cl)c(=O)n(C)c3n2)cc1	yes
Nc1ccn([C@@H]2O[C@H](CO)[C@@H](O)C2O)c(=O)n1 (stereo not given in full)	no

I would be grateful if you could indicate the recorded call for Cn1c(NCCN(CCO)CCCc2ccc([N+](=O)[O-])cc2)cc(=O)n(C)c1=O .
yes

I would be grateful if you could indicate the recorded call for O=C(O)CCNC(=O)c1ccc(N=Nc2ccc(O)c(C(=O)O)c2)cc1 .
no

I would be grateful if you could indicate the recorded call for O=C(NC(Cc1cc(=O)[nH]c2ccccc12)C(=O)O)c1ccc(Cl)cc1 (stereo not given) .
yes

I would be grateful if you could indicate the recorded call for C[C@H](Cn1cnc2c(N)ncnc21)OCP(=O)(O)O .
no

I would be grateful if you could indicate the recorded call for CC(=O)NC[C@H]1CN(c2ccc(N3CCOCC3)c(F)c2)C(=O)O1 .
no

I would be grateful if you could indicate the recorded call for C=C(c1ccc(C(=O)O)cc1)c1cc2c(cc1C)C(C)(C)CCC2(C)C .
no

I would be grateful if you could indicate the recorded call for CN(C)c1ccc2nc3ccc(=[N+](C)C)cc-3sc2c1 .
yes

I would be grateful if you could indicate the recorded call for O=C(OC1C[C@H]2CC[C@@H](C1)[N+]21CCCC1)C(O)(c1ccccc1)c1ccccc1 (stereo not given in full) .
no

I would be grateful if you could indicate the recorded call for Clc1ccc(C(Cn2ccnc2)OCc2ccsc2Cl)c(Cl)c1 (stereo not given) .
yes

I would be grateful if you could indicate the recorded call for Cc1ccc(S(=O)(=O)NC(=O)NN2CC3CCCC3C2)cc1 (stereo not given) .
yes

* * *

Experiment: qHTS of pediatric cancer cell lines to identify multiple opportunities for drug repurposing: Primary screen for BT-37 cells (AID 1347094)
Conditions: BT-37 viability, CellTiter-Glo luminescence, 48 h; series mostly up to 57.3 µM
Protocol: Drug repurposing or repositioning has been offered as a strategy for drug development in oncology programs. This approach has special potential for childhood cancers and other rare or orphan diseases, where the expected return on new drug development has been a disincentive to pharmaceuticals. […] We employed a titration-based paradigm (quantitative high-throughput screening or qHTS), where all compounds were tested at multiple concentrations for their effect on cell viability. […]
Records with an inconclusive call do not appear. Active and inactive are the calls of the source. The call rests on the fitted dose curve; in most records, active means well fitted cell-killing curve with a large enough effect; inconclusive means small, poorly fitted or top-dose-only effect; inactive means flat fitted curve, though single readings scatter.
Respond using exactly one of the listed classes: TRUE = active, FALSE = inactive

Cc1cc2c(s1)Nc1ccccc1N=C2N1CCN(C)CC1	FALSE
Cn1c(NCCN(CCO)CCCc2ccc([N+](=O)[O-])cc2)cc(=O)n(C)c1=O	FALSE
O=c1oc2cc(O)ccc2s1	FALSE
NS(=O)(=O)c1cc(C(=O)O)c(NCc2ccco2)cc1Cl	FALSE

I would be grateful if you could indicate the recorded call for C[Se]CCC(N)C(=O)O (centres undefined) .
FALSE

I would be grateful if you could indicate the recorded call for Cc1cc(C2CCCCC2)n(O)c(=O)c1 .
TRUE

I would be grateful if you could indicate the recorded call for O=C1CCc2ccc(OCCCCN3CCN(c4cccc(Cl)c4Cl)CC3)cc2N1 .
FALSE

I would be grateful if you could indicate the recorded call for O=P(O)(O)C(O)(Cn1ccnc1)P(=O)(O)O .
FALSE
